# Assay explanation: antimalarial activity against Dd2 strain (AID 2302);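 note: 0% = DMSO untreated growth and 100% = chloroquine plus artemisinin killed control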
# Recorded conditions: P. falciparum Dd2 in RBCs, LDH growth readout, 72 h; at 2 µM
Calls of active or inactive are those of the source.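 Rule for the calls: active = growth inhibition above 50% at the single 2 µM test dose, taken to imply half-maximal potency below 2 µM; inactive = the rest.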
Outcomes: active, inactive

- Molecule: "CNCCNCc1ccc(-c2ccc(-c3nc4ccc(F)cc4[nH]3)s2)cc1"
  Class assignment: "active"
- Molecule: "O=C(O)c1cc(OCC(O)COc2ccc(O)c(C(=O)O)c2)ccc1O"
  Class assignment: "inactive"
- Molecule: "Cc1[nH]c(C)c(-c2ccc(-c3ccc(Cl)cc3)cc2)c(=O)c1Cl"
  Class assignment: "active"
- Molecule: "CCCCCC(=O)NCC(NCCCNc1cc(=O)c2ccccc2[nH]1)c1cc(Br)cc(Br)c1 (stereo not given)"
  Class assignment: "active"
- Molecule: "O=C(/C=C/c1ccc(Cl)c(Cl)c1)NCCCCCN1CCCC(C(=O)Nc2cccc(Cl)c2)C1 (stereo not given)"
  Class assignment: "inactive"
- Molecule: "COc1ccc(NC(=O)Nc2ccc(-c3ccc(-c4nc5ccccc5[nH]4)cc3)cc2)cc1"
  Class assignment: "inactive"
- Molecule: "CNCCCn1c(N(C)C)nc2cc(-n3cnc4cc(-c5ccc(Cl)cc5)sc4c3=O)ccc21"
  Class assignment: "inactive"
- Molecule: "O=C(Nc1cccc(CN2CCCN(Cc3ncc[nH]3)CC2)c1)c1cc2ccccc2s1"
  Class assignment: "inactive"
- Molecule: "COc1ccc(Nc2nc(N)c3cc(OC)c(OC)cc3n2)cc1OC"
  Class assignment: "inactive"
- Molecule: "Cc1nc2ccccc2n1C1C[C@H]2CC[C@@H](C1)N2CCCC1(c2ccccc2)CCN(C(=O)OCc2ccccc2)CC1 (stereo not given in full)"
  Class assignment: "inactive"
- Molecule: "COc1ccc(-c2nc3c4cc(I)ccc4c4ccccc4c3[nH]2)cc1"
  Class assignment: "inactive"
- Molecule: "CCCCN(CCCC)CC(O)c1cc(-c2ccc(Cl)cc2)nc2c(Cl)cc(Cl)cc12 (stereo not given)"
  Class assignment: "active"
- Molecule: "Clc1cnc2ccc3c(c2c1CCN1CCC(NCc2cc4c(cn2)OCCO4)CC1)OCCO3"
  Class assignment: "inactive"
- Molecule: "CCOc1ccc2c(NN=Cc3cc(OC)c(OC)c(OC)c3)cc(C)nc2c1"
  Class assignment: "active"
- Molecule: "CN(C)CCN(C)Cc1ccc(-c2ccc(NC(=O)c3cccc(Cl)c3)cc2)cc1"
  Class assignment: "active"
- Molecule: "Cc1cccc2[nH]c(-c3cccc(-c4cccc(NC(=O)COc5ccccc5C(N)=O)c4)c3)nc12"
  Class assignment: "active"
- Molecule: "O=C(Nc1cccc(C(F)(F)F)c1)c1cccc(S(=O)(=O)NCC2CCCN2CC2CCCCC2)c1 (stereo not given)"
  Class assignment: "inactive"
- Molecule: "COc1ccc2ncc(Cl)c(N3CCC(CCNCc4ccc5c(n4)NC(=O)CS5)CC3)c2c1"
  Class assignment: "active"
- Molecule: "CC(C)(C)Nc1nc(Nc2cccc([N+](=O)[O-])c2)nc(-n2ccnc2)n1"
  Class assignment: "inactive"
- Molecule: "Cc1ccc(-c2nc(NC(=O)Nc3ccc(C(F)(F)F)cc3)sc2C)cc1Cl"
  Class assignment: "active"

* * *

# Assay explanation: human hepatoma cell viability loss – ATP luminescence, cytotoxicity control for P. falciparum antimalarial project, primary screen (AID 2303);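 note: 0% = DMSO wells and 100% = digitonin-killed cells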
# Recorded conditions: HepG2 viability, 24-48 h, at 10 µM, active compounds read high
Active and inactive are the calls of the source.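 The calls were made as follows: active = inhibition above 50%; inactive = the rest.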

- Compound: "CCCCCCCCN1CCN(CCCCCCNc2c3ccccc3nc3ccccc23)CC1"
  inhibition: "100% (active)"
- Compound: "Cc1ccc(Cc2cnc(NCCSCc3ccc(CN(C)C)s3)[nH]c2=O)cn1"
  inhibition: "3% (inactive)"
- Compound: "Cc1cc(N[C@@H](CC(C)C)C(=O)NC2CCCC2)nc(NCCc2ccc(F)cc2)n1"
  inhibition: "15% (inactive)"
- Compound: "Cc1cccc2[nH]c(-c3ccc(-c4cccc(CN5CCC(CCN6CCCCC6)CC5)c4)s3)nc12"
  inhibition: "99% (active)"
- Compound: "CC(C)c1ccc(CN2CCC(CNC(=O)c3cc(-c4cccc(F)c4)cs3)C2)cc1 (stereo not given)"
  inhibition: "59% (active)"

Where do these numbers come from? They come from PubChem BioAssay.
